- Assay info: Exposure in colon tissue and colon contents in TNBS studies
- Format: in vivo, rat
- Protocol conditions: male, Sprague-Dawley, rat, colon tissue, po, 0.3 mg/kg/day, TNBS rats, 0.3 mg/kg/day oral, Study 2; LC-MS/MS, LLOQ=2.6 nM; read-out: Colon tissue concentration
Test readout: level at time molar (nM)
Write the value in nM as a bare number.

[in] Name the recorded level at time molar of the item "CC(=O)NCCCC[C@@H]1NC(=O)[C@H](Cc2c[nH]c3c(C)cccc23)NC(=O)[C@H]([C@@H](C)O)NC(=O)[C@H](CC(N)=O)NC(=O)[C@@H](NC(C)=O)C(C)(C)SSC(C)(C)[C@@H](C(=O)N[C@@H](Cc2ccc(OCCN)cc2)C(=O)N[C@@H](Cc2ccc3ccccc3c2)C(=O)NC2(C(=O)N[C@@H](CCC(=O)O)C(=O)N[C@@H](CC(N)=O)C(=O)N[C@@H](Cc3cccnc3)C(=O)N(C)CC(N)=O)CCOCC2)NC1=O" in your answer.
[out] 47.5
